# experimental-system: UniProt P19327
# Sequence (P19327 whole entry): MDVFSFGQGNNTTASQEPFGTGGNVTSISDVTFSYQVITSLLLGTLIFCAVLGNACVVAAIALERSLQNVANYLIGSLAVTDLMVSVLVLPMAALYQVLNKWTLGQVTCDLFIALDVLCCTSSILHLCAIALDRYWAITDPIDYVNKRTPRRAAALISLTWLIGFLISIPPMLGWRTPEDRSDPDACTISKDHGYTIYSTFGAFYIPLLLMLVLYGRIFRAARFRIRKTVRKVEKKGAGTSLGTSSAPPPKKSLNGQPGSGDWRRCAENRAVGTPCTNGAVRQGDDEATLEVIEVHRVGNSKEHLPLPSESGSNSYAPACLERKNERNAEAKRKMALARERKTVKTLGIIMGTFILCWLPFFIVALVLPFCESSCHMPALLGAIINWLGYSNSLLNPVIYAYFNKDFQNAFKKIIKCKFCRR
# protocol-summary: In vitro inhibition of [3H]-8-hydroxy-2-(di-n-propylamino)tetralin binding to 5-hydroxytryptamine 1A receptor from rat hippocampal tissue at 1 uM
# condition-context: Hippocampus
For each entry below, report its inhibition value.
Numbers only, in %.

Recorded inhibition, per entry:
O=C1N(CCCCN2CCN(c3cncc(Cl)n3)CC2)C(=O)C23C4C=CC(C4)C12C1C=CC3C1 (centres undefined)	98
O=C1N(CCCCN2CCN(c3cncc(Cl)n3)CC2)C(=O)C23C4CCC(C4)C12C1CCC3C1 (centres undefined)	23
O=C1C2C3CCC(C4CC43)C2C(=O)N1CCCCN1CCN(c2cncc(Cl)n2)CC1 (centres undefined)	72

Would you mind giving inhibition for every compound in the list below?
1. Cl.Cn1nnnc1N1CCN(CCCCN2C(=O)C3C4C=CC(C5CCC45)C3C2=O)CC1 (centres undefined)
2. Cl.O=C1C2C3CCCC(CC3)C2C(=O)N1CCCCN1CCN(c2ccc(C(F)(F)F)cn2)CC1 (centres undefined)

[47, 71]

Would you mind giving inhibition for every compound in the list below?
1. Cl.O=C1C2C3CS(=O)(=O)CC3C2C(=O)N1CCCCN1CCN(c2ncccn2)CC1 (centres undefined)
2. Cl.O=C1C2C3C=CC(C4CC34)C2C(=O)N1CCCCN1CCN(c2cnccn2)CC1 (centres undefined)
3. COc1ccccc1N1CCN(CCCCN2C(=O)C3C4C=CC(C5C=CC54)C3C2=O)CC1.Cl (centres undefined)
4. Cl.O=C1C2C3C=CC(C4C=CC43)C2C(=O)N1CCCCN1CCN(c2ccc(C(F)(F)F)cn2)CC1 (centres undefined)

1. 44
2. 68
3. 100
4. 40
